biological target: IRAK4 enzyme (Homo sapiens (Human), UniProt Q9NWZ3); assay: biochemical; type: biochemical; conditions: IRAK4 enzyme, TR-FRET (HTRF), 500 μM ATP
Sequence (Q9NWZ3 whole entry): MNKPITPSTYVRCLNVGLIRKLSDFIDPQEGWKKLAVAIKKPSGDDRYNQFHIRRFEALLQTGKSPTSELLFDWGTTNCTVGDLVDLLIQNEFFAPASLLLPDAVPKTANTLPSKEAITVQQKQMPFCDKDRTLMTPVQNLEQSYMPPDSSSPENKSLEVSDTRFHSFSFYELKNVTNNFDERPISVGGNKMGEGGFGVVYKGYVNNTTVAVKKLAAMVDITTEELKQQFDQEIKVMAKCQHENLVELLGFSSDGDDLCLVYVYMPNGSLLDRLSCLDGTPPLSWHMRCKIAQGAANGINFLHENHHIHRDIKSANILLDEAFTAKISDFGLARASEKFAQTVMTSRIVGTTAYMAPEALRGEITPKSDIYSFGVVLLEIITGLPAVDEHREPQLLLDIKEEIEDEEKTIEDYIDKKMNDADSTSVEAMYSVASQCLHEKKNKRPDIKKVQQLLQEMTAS
pIC50: −log10 of the molar value.
EXPERIMENTAL ENDPOINT: pIC50

Below: 2 molecules and their reported pIC50.
MOLECULE | MEASURED TARGET | pIC50
CC(C)(O)[C@H](F)CNC(=O)c1cnc(-c2ccc3cc(C#N)cnn23)cc1Nc1ccc(C#N)cn1 | IRAK4 enzyme (Homo sapiens (Human), UniProt Q9NWZ3) | > 9.00
CC(C)(O)[C@H](F)CNC(=O)c1cnc(-c2ccc3cc(C#N)cnn23)cc1NC1CC2(CC(O)C2)C1 (stereo partly shown) | IRAK4 enzyme (Homo sapiens (Human), UniProt Q9NWZ3) | > 9.00

Lab note: each molecule below needs its pIC50 filled in.
1. CC1(O)CC2(CC(Nc3cc(-c4ccc5cc(C#N)cnn45)ncc3C(=O)NCC#N)C2)C1 (stereo not shown)
2. CC(C)(O)[C@H](F)CNC(=O)c1cnc(-c2ccc3cc(C#N)cnn23)cc1Nc1ccc(-n2nccn2)nc1

Result:
1: > 9.00; 2: > 9.00

Lab note: each molecule below needs its pIC50 filled in.
1. Cc1ncoc1-c1ccc(Nc2cc(-c3ccc4cc(C#N)cnn34)ncc2C(=O)NC[C@@H](F)C(C)(C)O)cc1
2. CC(C)(O)[C@H](F)CNC(=O)c1cnc(-c2ccc3cc(C#N)cnn23)cc1Nc1ccc(F)nc1
3. N#Cc1cnn2c(-c3cc(Nc4cnn(CC(F)F)c4)c(C(=O)N[C@H]4CC[C@H](NC(=O)C5CC5)CC4)cn3)ccc2c1

Result:
["> 9.00", "> 9.00", "> 9.00"]
